pest or weed control at 1000 g/ha reference
# Test system: Eleusine indica (ELEIN)
# Test Protocol: Post-emergence efficacy, glasshouse spray test
# Assay type: in vivo
# Run Conditions: Eleusine indica, post-emergence, 312 h; application rate 1000 g/Ha; evaluated after 13 days; read-out: Control of weed species ELEIN after post-emergence application (100=total damage to plant; 0=no damage to plant)
Answer with a number only, understood to be in %.

O=S(=O)([O-])CC[n+]1ccc2ccc(F)cc2n1 [Compound A83]: 80
CC(CC[n+]1ccc2ccccc2n1)S(=O)(=O)[O-] (stereo not shown) [Compound A43, 4-cinnolin-2-ium-2-ylbutane-2-sulfonate]: 100
O=S(=O)(O)OCC[n+]1nc2ccccc2cc1Cl [Compound A56]: 30
COC(=O)c1cccc(C[n+]2ccc3ccccc3n2)c1 [Compound A90]: 20
O=S(=O)(O)CC[n+]1ccc2cc(-c3ccccc3)ccc2n1 [Compound A112]: 30

Now consider a different molecule.
stdin: Read the entry Cc1ccc2n[n+](CCS(=O)(=O)[O-])cc(C)c2c1 [Compound A33] and write its reported pest or weed control at 1000 g/ha.
stdout: 30
